Origin of measurements: patent US8697683B2

assay.system: purified wild type MGL (wt-MGLL 6H-11-313) (Homo sapiens, UniProt Q99685)
Sequence (Q99685 1-303): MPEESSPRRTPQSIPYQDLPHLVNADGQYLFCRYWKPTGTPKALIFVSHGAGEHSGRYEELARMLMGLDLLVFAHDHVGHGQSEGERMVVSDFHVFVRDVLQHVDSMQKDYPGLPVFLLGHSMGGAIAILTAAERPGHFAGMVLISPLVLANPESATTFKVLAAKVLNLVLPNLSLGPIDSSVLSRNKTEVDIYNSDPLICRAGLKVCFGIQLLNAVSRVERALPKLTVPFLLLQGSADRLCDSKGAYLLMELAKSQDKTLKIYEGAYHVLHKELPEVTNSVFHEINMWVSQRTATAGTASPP
study.conditions: read-out: MGL wild type inh IC50, 4MU-B substrate 10 μM, 37° C.
Quick list: IC50 per entry.
Include the unit after the number when you answer.

A selection of reference data follows.
O=C(c1nccs1)N1CCN(C2CN(C(=O)c3cccc4nc(-c5ccccc5)[nH]c34)C2)CC1; 769 nM
Cn1nccc1-c1ccc2cc(C(=O)N3CC(N4CCN(C(=O)c5nccs5)CC4)C3)[nH]c2c1; 460 nM

Asked: Kindly indicate its recorded IC50. Item: O=C(c1nc2cc(-c3ccc(OC(F)(F)F)cc3)ccc2[nH]1)N1CC(N2CCN(C(=O)c3nccs3)CC2)C1
Given back: 5110 nM

----------
assay.system: mutant MGL (Homo sapiens, UniProt Q99685, L169S/L176S)
Sequence (Q99685 1-303 L169S/L176S): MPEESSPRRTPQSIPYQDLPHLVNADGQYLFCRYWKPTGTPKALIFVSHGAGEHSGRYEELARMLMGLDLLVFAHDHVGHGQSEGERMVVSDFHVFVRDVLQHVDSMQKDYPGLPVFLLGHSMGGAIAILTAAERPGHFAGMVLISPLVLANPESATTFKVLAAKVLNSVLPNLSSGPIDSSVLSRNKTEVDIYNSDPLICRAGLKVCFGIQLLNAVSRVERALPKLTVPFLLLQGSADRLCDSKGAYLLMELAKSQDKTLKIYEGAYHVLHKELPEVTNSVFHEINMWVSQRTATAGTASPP
method.notes: MGL ThermoFluor Assay-Mutant
study.conditions: read-out: MGL mutant ThermoFluor qKd (μM) (using qNMR conc.), compound concentration measured by quantitative NMR (qNMR)
measurement.name: Kd

Known results for molecules:
O=C(c1nc2cc(-c3ccc(OC(F)(F)F)cc3)ccc2[nH]1)N1CC(N2CCN(C(=O)c3nccs3)CC2)C1; 7.12 µM
Cn1nccc1-c1ccc2cc(C(=O)N3CC(N4CCN(C(=O)c5nccs5)CC4)C3)[nH]c2c1; 0.638 µM

Asked: Output measured Kd for this item: Cc1sc(C(=O)N2CC(N3CCN(C(=O)c4nccs4)CC3)C2)cc1Br
Given back: 0.283 µM

Asked: Please supply the value of reported Kd for the item O=C(c1cn2cc(Cl)cc(Br)c2n1)N1CC(N2CCN(C(=O)c3nccs3)CC2)C1
Given back: 5.42 µM

----------
assay.system: mutant MGL (Homo sapiens, UniProt Q99685, L169S/L176S)
method.notes: MGL ThermoFluor Assay-Mutant
study.conditions: read-out: MGL mutant ThermoFluor Kd, ThermoFluor thermal stability binding assay
Each entry below lists one item and its recorded pKd value.
Answer as the number alone; pKd is minus log10 of concentration in mol/L.

The following compounds have reported results that may help.
COc1ccc(-c2cccc(C(=O)N3CC(N4CCN(C(=O)c5cscn5)CC4)C3)c2)cc1; 5.70
O=C(c1ccccc1)N1CCN(C2CN(C(=O)c3ccc(Oc4cccc(F)n4)cc3)C2)CC1; 5.33

Asked: Provide pKd, recorded with mutant MGL (Homo sapiens, UniProt Q99685, L169S/L176S), of COc1cncc(Oc2ccc(C(=O)N3CC(N4CCN(C(=O)c5ccccc5)CC4)C3)cc2)c1
Given back: 5.00

Asked: Report measured pKd on mutant MGL (Homo sapiens, UniProt Q99685, L169S/L176S); entry: O=C(c1ccc(-c2ccc(Cl)cc2)[nH]1)N1CC(N2CCN(C(=O)c3nccs3)CC2)C1
Given back: 5.38

Asked: Give pKd; test system mutant MGL (Homo sapiens, UniProt Q99685, L169S/L176S); compound O=C(c1ccc(SCc2cccc(C(F)(F)F)c2)cc1)N1CC(N2CCN(C(=O)c3cscn3)CC2)C1
Given back: 5.70

Asked: Look up and report pKd, with mutant MGL (Homo sapiens, UniProt Q99685, L169S/L176S) as system, for O=C(c1ccccc1)N1CC(N2CCN(C(=O)c3cc4cc(Cl)ccc4o3)CC2)C1
Given back: 5.78

Asked: For mutant MGL (Homo sapiens, UniProt Q99685, L169S/L176S), give pKd of the listed compound: O=C(c1ccc(Oc2cccc(Cl)c2)nc1)N1CC(N2CCN(C(=O)c3cscn3)CC2)C1
Given back: 5.67
